Target: Ba/F3 EGFR Wild-type (Homo sapiens)
Sequence (P00533 whole entry, change not shown): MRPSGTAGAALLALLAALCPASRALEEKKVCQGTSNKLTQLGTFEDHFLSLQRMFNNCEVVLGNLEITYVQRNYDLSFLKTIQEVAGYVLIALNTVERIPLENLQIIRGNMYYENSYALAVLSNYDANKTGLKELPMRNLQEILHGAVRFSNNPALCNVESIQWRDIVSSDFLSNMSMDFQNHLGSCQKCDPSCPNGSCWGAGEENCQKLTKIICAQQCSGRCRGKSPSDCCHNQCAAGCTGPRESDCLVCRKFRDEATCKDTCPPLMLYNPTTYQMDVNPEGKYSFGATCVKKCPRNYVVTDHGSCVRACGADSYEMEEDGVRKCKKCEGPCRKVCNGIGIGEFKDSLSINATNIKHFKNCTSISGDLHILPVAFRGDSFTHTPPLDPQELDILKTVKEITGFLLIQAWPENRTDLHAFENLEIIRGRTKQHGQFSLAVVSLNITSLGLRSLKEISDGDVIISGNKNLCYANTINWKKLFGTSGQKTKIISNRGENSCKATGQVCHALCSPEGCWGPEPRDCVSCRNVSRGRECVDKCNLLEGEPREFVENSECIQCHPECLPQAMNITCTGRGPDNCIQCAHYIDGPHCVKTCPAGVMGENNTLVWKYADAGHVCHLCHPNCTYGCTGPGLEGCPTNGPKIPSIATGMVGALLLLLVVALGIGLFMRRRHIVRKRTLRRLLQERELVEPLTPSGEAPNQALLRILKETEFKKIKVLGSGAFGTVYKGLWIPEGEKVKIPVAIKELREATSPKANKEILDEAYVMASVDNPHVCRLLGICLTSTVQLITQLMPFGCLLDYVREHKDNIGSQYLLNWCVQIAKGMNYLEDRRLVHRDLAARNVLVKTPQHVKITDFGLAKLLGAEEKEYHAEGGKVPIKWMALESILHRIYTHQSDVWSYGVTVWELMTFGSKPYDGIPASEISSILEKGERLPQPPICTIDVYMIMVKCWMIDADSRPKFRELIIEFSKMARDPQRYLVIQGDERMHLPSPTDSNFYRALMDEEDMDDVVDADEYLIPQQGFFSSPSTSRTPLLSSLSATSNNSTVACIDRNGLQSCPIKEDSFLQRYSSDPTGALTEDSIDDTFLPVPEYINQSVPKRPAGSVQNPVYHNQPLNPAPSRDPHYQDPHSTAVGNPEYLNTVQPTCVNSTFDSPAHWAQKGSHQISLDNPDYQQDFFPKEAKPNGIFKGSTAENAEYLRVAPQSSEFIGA
Test: CellTiter-Glo cell viability, Ba/F3 EGFR wild-type cells
Type: cell-based, murine
Details: 72 hours, read-out: Ba/F3 EGFR mutant cell (IC50, nM) WT
Consider the following compounds; for each one, report its GI50.

CCCc1cc(Nc2ncc(Cl)c(Nc3ccc4nccnc4c3NS(C)(=O)=O)n2)c(OC)cc1N1CCC(N2CCN(C)CC2)CC1 [Example A6]	498 nM
CCCc1cc(Nc2ncc(Cl)c(Nc3ccc4nccnc4c3N(C)S(C)(=O)=O)n2)c(OC)cc1N1CCC(N2CCCC2)CC1 [Example A42]	1860 nM
CCc1cc(Nc2ncc(Br)c(Nc3ccc4nccnc4c3NS(C)(=O)=O)n2)c(OC)cc1N1CCC(N2CC3CCC2CN3C)CC1 (stereo not shown) [Example A46]	739 nM

Batch request: GI50 for each of the following compounds.
1. CCc1cc(Nc2ncc(Cl)c(Nc3ccc4nccnc4c3NS(C)(=O)=O)n2)c(OC)cc1N1CCC(N2CCOCC2)CC1 [Example A29]
2. COc1cc(N2CCC(N3CCN(C)CC3)CC2)c(F)cc1Nc1ncc(Br)c(Nc2ccc3nccnc3c2NS(C)(=O)=O)n1 [Example A27]
3. CCc1cc(Nc2ncc(Cl)c(Nc3ccc4nccnc4c3NS(C)(=O)=O)n2)c(OC)cc1N1CC2CCC1CN2C(C)C (stereo not shown) [Example B25]
4. COc1cc(N2CCC(N3CCN(CC(F)F)CC3)CC2)ccc1Nc1ncc(Cl)c(Nc2ccc3nccnc3c2NS(C)(=O)=O)n1 [Example A37]
5. COc1ccc(Nc2nc(Nc3cc(C)c(N4CCC(N5CCN(C)CC5)CC4)cc3OC)ncc2Br)c(NS(C)(=O)=O)c1 [Example C2]
6. CCc1cc(Nc2ncc(Cl)c(Nc3ccc4c(c3N(C)S(C)(=O)=O)OCCO4)n2)c(OC)cc1N1CCC(N2CCOCC2)CC1 [Example C30]
7. CNc1cc(N2CCC(N3CCN(C)CC3)CC2)c(C)cc1Nc1ncc(Cl)c(Nc2ccc3nccnc3c2NS(C)(=O)=O)n1 [Example A13]

Given back:
1: 200 nM; 2: 183 nM; 3: 829 nM; 4: 734 nM; 5: 385 nM; 6: 664 nM; 7: > 2000 nM
